experimental.details: Stability and biodistribution of prodrugs in vivo (HPLC of plasma and tissues)
Parameters: species or system mice (CD-1 nude; BALB/C where indicated)
experimental.conditions: mouse, plasma, 50 mg/kg, PLASMA, 30 min, 50 mg/kg i.p. or i.v., CD-1 nude mice; read-out: stability: percentage of material observed as intact prodrug, plasma
assay.endpoint: remaining at 0.5 h
The answer should read as a number with its unit following.

Challenge: What does the data say about its remaining at 0.5 h? Entry: CN(Cc1cnc2nc(N)nc(N)c2n1)c1ccc(C(=O)N[C@@H](CCC(=O)O)C(=O)N[C@@H](Cc2ccccc2)C(=O)O)cc1 [Prodrug 10, reference compound]
Response given: 30.2%

Challenge: What value of measured remaining at 0.5 h is listed for Cc1nc2ccc3ccc(CNc4ccc(C(=O)N[C@@H](CCC(=O)O)C(=O)N[C@@H](CCC(=O)O)C(=O)O)c(F)c4)cc3c2c(=O)[nH]1 [Prodrug 1] ?
Response given: 99%

Challenge: What does the data say about its remaining at 0.5 h? Entry: CN(Cc1cnc2nc(N)nc(N)c2n1)c1ccc(C(=O)N[C@@H](CCC(=O)O)C(=O)N[C@@H](Cc2ccccc2C(=O)O)C(=O)O)cc1 [Prodrug 7]
Response given: 100%

Challenge: State the recorded remaining at 0.5 h for this entry: CN(Cc1cnc2nc(N)nc(N)c2n1)c1ccc(C(=O)N[C@@H](CCC(=O)O)C(=O)N[C@@H](Cc2cccc(C(C)(C)C)c2)C(=O)O)cc1 [Prodrug 12]
Response given: 100%

Challenge: Give the measured remaining at 0.5 h of Cc1nc2ccc3ccc(CNc4ccc(C(=O)N[C@@H](CCC(=O)O)C(=O)N[C@@H](Cc5ccccc5C(=O)O)C(=O)O)c(F)c4)cc3c2c(=O)[nH]1 [Prodrug 4] .
Response given: 100%

Challenge: What value of remaining at 0.5 h has been reported for the following compound? CN(Cc1cnc2nc(N)nc(N)c2n1)c1ccc(C(=O)N[C@@H](CCC(=O)O)C(=O)N[C@@H](Cc2ccccc2C2CCCC2)C(=O)O)cc1 [Prodrug 8]
Response given: 95%

Challenge: Look at this compound and give its reported remaining at 0.5 h. Cc1nc2ccc3ccc(CNc4ccc(C(=O)N[C@@H](CCC(=O)O)C(=O)N[C@@H](Cc5cccc6ccccc56)C(=O)O)c(F)c4)cc3c2c(=O)[nH]1 [Prodrug 3]
Response given: 93%

Challenge: Tell me the measured remaining at 0.5 h of CN(Cc1cnc2nc(N)nc(N)c2n1)c1ccc(C(=O)N[C@@H](CCC(=O)O)C(=O)N[C@@H](Cc2cccc(C3CCC3)c2)C(=O)O)cc1 [Prodrug 11] , please.
Response given: 97.1%

Challenge: Reported remaining at 0.5 h, compound Nc1nc(N)c(CCCNc2ccc(C(=O)N[C@@H](CCC(=O)O)C(=O)N[C@@H](Cc3cccc(C4CCCC4)c3)C(=O)O)cc2)c(=O)[nH]1 [Prodrug 14] : ____
Response given: 100%

Challenge: If you can, please state the reported remaining at 0.5 h value of CN(Cc1cnc2nc(N)nc(N)c2n1)c1ccc(C(=O)N[C@@H](CCC(=O)O)C(=O)N[C@@H](CC(=O)O)C(=O)O)cc1 [Prodrug 6] .
Response given: 100%

Each compound below has a reported value. Please supply its remaining at 0.5 h.
1. CN(Cc1cnc2nc(N)nc(N)c2n1)c1ccc(C(=O)N[C@@H](CCC(=O)O)C(=O)N[C@@H](Cc2ccc(O)c(C3CCCC3)c2)C(=O)O)cc1 [Prodrug 13]
2. Cc1nc2ccc3ccc(CNc4ccc(C(=O)N[C@@H](CCC(=O)O)C(=O)N[C@@H](Cc5ccccc5I)C(=O)O)c(F)c4)cc3c2c(=O)[nH]1 [Prodrug 5]
3. Cc1nc2ccc3ccc(CNc4ccc5c(c4)CN([C@@H](CCC(=O)O)C(=O)N[C@@H](Cc4ccccc4)C(=O)O)C5=O)cc3c2c(=O)[nH]1 [Prodrug 2]
4. CN(Cc1cnc2nc(N)nc(N)c2n1)c1ccc(C(=O)N[C@@H](CCC(=O)O)C(=O)N[C@@H](Cc2cccc(C3CCCC3)c2)C(=O)O)cc1 [Prodrug 9]

Response given:
100%
98%
100%
100%
